Details: 293.15 K; 101.33 kPa; Liquid; Vibrating tube method
measured attribute: mass density (kg/m3)
A number alone suffices; assume kg/m3.

Need mass density, item CC[n+]1ccn(C)c1.N[C@@H](CO)C(=O)[O-] [3-ethyl-1-methyl-1H-imidazolium L-serinate]
1206.8

Same again, this time with CCn1cc[n+](C)c1.NCCS(=O)(=O)[O-] [1-ethyl-3-methylimidazolium taurinate]
1255

Same again, this time with CCn1cc[n+](C)c1.O=C([O-])[C@@H]1CCCN1 [1-ethyl-3-methyl-1H-imidazolium L-prolinate]
1145.9

Same again, this time with CCn1cc[n+](C)c1.NCC(=O)[O-] [1-ethyl-3-methylimidazolium ammonioacetate]
1164.3

Same again, this time with CCn1cc[n+](C)c1.C[C@H](N)C(=O)[O-] [1-ethyl-3-methylimidazolium L-alaninate]
1126.3

====

Please provide measured refractive index for the entries that follow.
Test: refractive index (Na D-line) (dimensionless)
Conditions: 308.15 K; 101 kPa; Liquid; Standard Abbe refractometry
Keep the answer to the number alone.

Need refractive index, item CCn1cc[n+](C)c1.NCCS(=O)(=O)[O-] [1-ethyl-3-methylimidazolium taurinate]
1.5095

Same again, this time with CCn1cc[n+](C)c1.N#C[C-](C#N)C#N [1-ethyl-3-methyl-1H-imidazolium tricyanomethanide]
1.50938

Same again, this time with CCn1cc[n+](C)c1.NCC(=O)[O-] [1-ethyl-3-methylimidazolium ammonioacetate]
1.51724

Same again, this time with CCn1cc[n+](C)c1.C[C@H](N)C(=O)[O-] [1-ethyl-3-methylimidazolium L-alaninate]
1.50937

Same again, this time with CCn1cc[n+](C)c1.O=C([O-])[C@@H]1CCCN1 [1-ethyl-3-methyl-1H-imidazolium L-prolinate]
1.5187

Same again, this time with CC[n+]1ccn(C)c1.N[C@@H](CO)C(=O)[O-] [3-ethyl-1-methyl-1H-imidazolium L-serinate]
1.52294

====

Details: 353.15 K; 101.33 kPa; Liquid; Vibrating tube method
measured attribute: mass density (kg/m3)
A number alone suffices; assume kg/m3.

Need mass density, item CCn1cc[n+](C)c1.NCCS(=O)(=O)[O-] [1-ethyl-3-methylimidazolium taurinate]
1216.8

Same again, this time with CCn1cc[n+](C)c1.O=C([O-])[C@@H]1CCCN1 [1-ethyl-3-methyl-1H-imidazolium L-prolinate]
1109.1

Same again, this time with CCn1cc[n+](C)c1.NCC(=O)[O-] [1-ethyl-3-methylimidazolium ammonioacetate]
1127.4

Same again, this time with CCn1cc[n+](C)c1.C[C@H](N)C(=O)[O-] [1-ethyl-3-methylimidazolium L-alaninate]
1088.9

Same again, this time with CC[n+]1ccn(C)c1.N[C@@H](CO)C(=O)[O-] [3-ethyl-1-methyl-1H-imidazolium L-serinate]
1169.7

====

Assay: refractive index (Na D-line) (dimensionless)
Details: 298.15 K; 101 kPa; Liquid; Standard Abbe refractometry
measured attribute: refractive index
Keep the answer to the number alone.

Need refractive index, item CCn1cc[n+](C)c1.N#C[C-](C#N)C#N [1-ethyl-3-methyl-1H-imidazolium tricyanomethanide]
1.51286

Same again, this time with CCn1cc[n+](C)c1.NCC(=O)[O-] [1-ethyl-3-methylimidazolium ammonioacetate]
1.51997

Same again, this time with CCn1cc[n+](C)c1.NCCS(=O)(=O)[O-] [1-ethyl-3-methylimidazolium taurinate]
1.51217

Same again, this time with CCn1cc[n+](C)c1.O=C([O-])[C@@H]1CCCN1 [1-ethyl-3-methyl-1H-imidazolium L-prolinate]
1.52151

Same again, this time with CCn1cc[n+](C)c1.C[C@H](N)C(=O)[O-] [1-ethyl-3-methylimidazolium L-alaninate]
1.51223

Same again, this time with CC[n+]1ccn(C)c1.N[C@@H](CO)C(=O)[O-] [3-ethyl-1-methyl-1H-imidazolium L-serinate]
1.52565
